Recorded self-cleavage kobs at 160 uM GlcN6P by entry
B1: glmS ribozyme (parent)
chain: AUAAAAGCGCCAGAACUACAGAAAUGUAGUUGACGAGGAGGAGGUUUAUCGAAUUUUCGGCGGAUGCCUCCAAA

# Variants of: B1
# assay_info: self-cleavage kobs at 160 uM GlcN6P; higher = faster cleavage; RNA array
# cond: with glucosamine-6-phosphate
Fewer inactive variants are shown than the library holds.

Below, each entry is followed by its recorded self-cleavage kobs at 160 uM GlcN6P result.
- A15C C67U: 0.000198 s⁻¹
- A6G A53C G63A A64G: < 1e-05 s⁻¹
- C8U C16G G51U: < 1e-05 s⁻¹
- G32A A42U: < 1e-05 s⁻¹
- G40U A48G G59U: < 1e-05 s⁻¹

As a next step, examine the variant that follows.
Given A6C A36G U47G , respond with its self-cleavage kobs at 160 uM GlcN6P.
< 1e-05 s⁻¹
